Data origin, for the record: the supplement of paper PMC10201428

B1: library; a variant is named by its letters at N, in order (parent)
chain: ACATTTGTTGATACAACCATAAAATGATAATTACACCCATAAATTGATAATTATCACACCCANNNNNNNNNNNNNNCTCTGATCATAGTCAGACCAACATTGCTACGACCCGTATTCGCACCGACAC

# Variants of: B1
# Assay Details: relative integration efficiency (T-LR orientation) vs wild-type transposon end (log2 (normalized fold change)); transposon end mutated: right end (5 bp flank + 75 bp right end); higher = more efficient transposition
# Condition Set: with VchCAST RNA-guided transposition machinery (E. coli BL21(DE3) host, lacZ target)
Recorded Endpoint: relative integration efficiency (log2)

Solved cases below.
Variant Notation	relative integration efficiency (log2)
TAAATTGATATCGC	-0.0692
TAAATTGATATTGC G7A	-0.974
TAAATTGATATTGC T31C	0.344
TAAATTGATATTGC G46C	-0.847

Data point: TAAATTGATATTGC G10A ; relative integration efficiency (log2) = -0.464

Recorded relative integration efficiency (log2) (variant TAAATTGATATTGC G26T ): -0.0416

Entry under test: ATTTAACTATAACG A19G . Its relative integration efficiency (log2) was 2.08

Lab book: relative integration efficiency (log2) of `TATATTGATATTGC` noted as 0.337

response.value for `TAAATACATATTGC` (field: relative integration efficiency (log2)) = 2.3
